# Tested on: SNB-75 CNS
# EXPERIMENTAL_PROTOCOL: NCI tumour cell line growth inhibition, 48 h
Reported values of TGI for individual entries
METRIC: TGI (µM)

1. CCc1cccc(C)c1NC(=O)CC1C(=O)Nc2ccccc2S1(=O)=O (stereo not given)	31.2
2. CS(=O)(=O)N(c1cc(-c2ccc3ncnc(Nc4cccc(Cl)c4)c3c2)cnc1Cl)S(C)(=O)=O	0.641

----------
Below, each of the molecules is paired with its reported TGI value.
# Tested on: DU-145 prostate
# EXPERIMENTAL_PROTOCOL: NCI tumour cell line growth inhibition, 48 h
METRIC: TGI

1. COc1cccc2c1n([O-])c1cccc(OC)c1[n+]2=O	> 100 µM
2. COc1ccc2nc3cc(Cl)ccc3c(NCCNc3c4ccc(Cl)cc4nc4ccc(OC)cc34)c2c1	3.08 µM
3. C=CC(C)(C)C(=C)C(=O)Nc1ccccc1I	> 100 µM
4. CN(C)CCCNCc1cccc2ccccc12	> 100 µM
5. Cc1cc(Nc2cc(N)ncn2)c(=O)n2c1C(=O)NC21CCCCC1	> 100 µM
6. CN(C)/N=N/c1nc[nH]c1C(N)=O	> 1000 µM
7. CN(C)CCCn1c(-c2nonc2N)nc2cnccc21	> 25 µM
8. CC(C)(C)[Si](C)(C)OCC1OC(n2cnc3c(=O)[nH]c(N)nc32)C(O[Si](C)(C)C(C)(C)C)C1O[Si](C)(C)C(C)(C)C (stereo unspecified)	12.2 µM
9. Fc1cc(-c2cc(-c3ccc4c(c3)OCO4)n[nH]2)c(Cl)cc1Cl	13 µM
10. O=[N+]([O-])C(Cl)=C/C(=C(\Cl)SCc1ccccc1)[N+](=O)[O-]	> 100 µM
11. CCC(NC1=NCCO1)c1cccs1 (stereo unspecified)	28.5 µM

----------
Each entry below lists one item and its recorded TGI value.
# System: UO-31 renal
# EXPERIMENTAL_PROTOCOL: NCI tumour cell line growth inhibition, 48 h
METRIC: TGI

1. NC(=S)NN=C1CSSC1	20.1 µM
2. Cc1ccc([N+](=O)[O-])c2c(NCC(O)CO)ccnc12 (configuration not stated)	> 100 µM
3. COc1ccc(/C=C\c2cc(OC)c(OC)c(OC)c2)cc1O	> 88.6 µM
4. C/C=N\N1C(=O)c2ccccc2C1=O	> 100 µM
5. O=C(CCC(=O)C1CCC/C1=N/O)Nc1ccc(Cl)cc1 (configuration not stated)	> 100 µM
6. O=C(O)C(=O)/C=C(\O)c1ccc(Br)cc1	> 100 µM
7. CCOC(=O)[C@@H]1ON2OC(OC3CCCC3(c3ccccc3)c3ccccc3)C(OC(C)=O)[C@H]3OC(=O)[C@@H]1C32 (some centres not stated)	> 100 µM

----------
# Test system: MOLT-4 leukemia
# EXPERIMENTAL_PROTOCOL: NCI tumour cell line growth inhibition, 48 h; in the data active = GI50 below about 0.43 µM; inactive = the rest
*1 amine or outer side, *2 acyl side, *3 side chain or, on linkers, in order; H or OH if unused. Where a SMILES comes first, the peptide text is derived from it. Bridges are numbered along the chain shown (N, C = ends). Roman numbers before positions name the chains, in order. [ ]: non-standard residue; d: D form. Actinocin(9to1) = Cc1c2oc3c(C)ccc(C(=O)[*:1])c3nc-2c(C(=O)[*:2])c(N)c1=O; NMeF = CN[CH](Cc1ccccc1)C(=O)O; Sar = CNCC(=O)O
Possible outcomes: TRUE = active, FALSE = inactive

1. Cc1c(Cl)cccc1NC(=O)c1sc2nc3c(cc2c1N)CCCCC3	TRUE
2. Cc1c2oc3c(C)ccc(C(=O)NC4C(=O)NC(C(C)C)C(=O)N5CCCC5C(=O)N(C)CC(=O)N(C)C(Cc5ccccc5)C(=O)OC4C)c3nc-2c(C(=O)NC2C(=O)NC(C(C)C)C(=O)N3CCCC3C(=O)N(C)CC(=O)N(C)C(Cc3ccccc3)C(=O)OC2C)c(N)c1=O (stereo unspecified) (I: TVP[Sar][NMeF] / II: TVP[Sar][NMeF]; ester I:1-I:C, II:1-II:C; linker I:N-II:N via Actinocin(9to1); configuration not given here)	TRUE
3. COc1ccc(-c2nn(-c3ccc(NC(=O)Nc4ccc(Cl)c(C(F)(F)F)c4)cc3)cc2-c2ccncc2)cc1Cl	FALSE
4. C[C@@H]1COCCN1c1cc(C2(O)C[C@H]3CC[C@@H](C2)O3)c2cnn(-c3ccn[nH]3)c2n1 (stereo partly specified)	TRUE
5. CN(C)/N=N/c1nc[nH]c1C(N)=O	FALSE
6. O=C1C(Cl)=C(Nc2cccc(O)c2)C(=O)N1Cc1ccc(Cl)cc1Cl	FALSE

----------
# Test system: PC-3 prostate
# EXPERIMENTAL_PROTOCOL: NCI tumour cell line growth inhibition, 48 h
This listing pairs compounds with measured TGI.
METRIC: TGI

1) Cc1ccc(NC(=O)CSC(N)=O)cc1C	> 100 µM
2) Cc1ccc([N+](=O)[O-])c2c(NCC(O)CO)ccnc12 (stereo unspecified)	> 100 µM
3) O=C1OCC2=C1C(c1ccccc1)c1cc3c(cc1N2CCO)OCCO3 (stereo unspecified)	> 50 µM
4) OC1C[C@H](c2ccccc2)C2(C(O)c3ccccc3C2O)[C@@H](c2ccccc2)C1 (stereo partly specified)	> 100 µM
5) COc1ccc2ccc3oc([N+](=O)[O-])cc3c2c1	7.9 µM
6) CCN1CCC(O)(/C=C/c2ccc(C(C)C)cc2)C(C(=O)/C=C/c2ccc(C(C)C)cc2)C1 (stereo unspecified)	11.4 µM

----------
# Tested on: SK-OV-3 ovarian
# EXPERIMENTAL_PROTOCOL: NCI tumour cell line growth inhibition, 48 h
Recorded measurements of TGI, one per entry
METRIC: TGI

1. CCN(c1cc(C#CCN2CCOCC2)cc(C(=O)NCc2c(C)cc(C)[nH]c2=O)c1C)C1CCC(N(C)CCOC)CC1 (stereo not drawn)	> 100 µM
2. O=C(c1ccccc1)c1c(C(F)(F)F)n([O-])c2ccc(C(F)(F)F)cc2[n+]1=O	2.38 µM
3. CC(=O)Nc1ccccc1NC1CC(C)N(c2ccccc2)N1C(C)=O (stereo not drawn)	> 10 µM
4. CC1(C)CCc2c(c(N=Nc3ccc(F)cc3)c3ccccc3c2O)O1	> 100 µM
5. CC(=O)OC1COC(Nc2nc(N)n(C)c(=O)c2N=O)C(OC(C)=O)C1OC(C)=O (stereo not drawn)	> 10 µM
6. O=[N+]([O-])C(Cl)=C/C(=C(\Cl)SCc1ccccc1)[N+](=O)[O-]	> 100 µM
7. COc1cc2c3c(n(C)c(=O)c2cc1OC)-c1cc2c(cc1/C3=C\CCNCCCN)OCO2	11.7 µM
8. C=C(C(=O)O[C@H]1C(=O)C2=C(C)CCC3C(=C)C(=O)O[C@@H]3C2[C@]1(C)O)C1CC[C@]2(C)CCCC(=C)[C@H]2C1 (stereo partly drawn)	30.5 µM

----------
# Tested on: HOP-92 NSCLC
# EXPERIMENTAL_PROTOCOL: NCI tumour cell line growth inhibition, 48 h
Binary call on TGI: T from 30 µM upward, F beneath that.

1. CC(=C/c1ccccc1)/C=C1/NC(=S)N(/C=C2\C(=O)Oc3ccccc3C2=O)C1=O	T
2. C=CC(C)(C)C(=C)C(=O)Nc1ccccc1I	T
3. Cc1ccc(-c2cc(O)c(-c3ccc(C)cc3C)cc2O)c(C)c1	F
4. O=C1c2ccccc2C(=O)c2[nH]c(Cc3ccc(F)cc3)nc21	T
5. COc1cc(-c2csc(NC(=O)Nc3cc(Cl)cc(Cl)c3)n2)cc(OC)c1OC	F
6. CC1=NN(c2nc(N)nc(/C=C\c3ccc([N+](=O)[O-])s3)n2)C(C)(C)C1	T
7. Oc1ccc(Cc2cc(Cl)cc(Cl)c2O)cc1Cl	T
8. O=c1ccc2nc(-c3ccccn3)nn(-c3ccccc3)c-2c1	F
9. CC(=O)c1nc2ccccc2n1CC(=O)c1cccc(Cl)c1	T
10. Cc1ccc(N=C2C(=Nc3ccc(C)cc3)N(c3ccc(C)cc3)C(=S)N2C(=O)c2ccccc2)cc1	T
11. Oc1cc(Br)cc2cc(Cl)cnc12	T

----------
# System: SK-MEL-5 melanoma
# EXPERIMENTAL_PROTOCOL: NCI tumour cell line growth inhibition, 48 h
Entry flag: yes if TGI reaches 30 µM; no if it does not.

1. CCOC(=O)[C@@H]1ON2OC(OC3CCCC3(c3ccccc3)c3ccccc3)C(OC(C)=O)[C@H]3OC(=O)[C@@H]1C32 (some centres not stated)	yes
2. O=c1oc2ccccc2c(O)c1C(C/C(CCN1CCCC1)=N\Nc1ccccc1)c1ccccc1 (configuration not stated)	yes
3. Cc1cc(Nc2cc(N)ncn2)c(=O)n2c1C(=O)NC21CCCCC1	yes
4. C[C@@H]1COCCN1c1cc(C2(O)C[C@H]3CC[C@@H](C2)O3)c2cnn(-c3ccn[nH]3)c2n1 (some centres not stated)	no
5. Cc1ccc(-c2cc(O)c(-c3ccc(C)cc3C)cc2O)c(C)c1	no
6. NC(CSSCC(N)Cc1ccccc1)Cc1ccccc1 (configuration not stated)	yes
7. Oc1cc(Br)cc2cc(Cl)cnc12	no
8. O=C1CC2CCC(C1)S2=O (configuration not stated)	yes
9. COc1cccc2c1n([O-])c1cccc(OC)c1[n+]2=O	no
10. CC[C@H](C)C(=O)O[C@H]1C[C@H](O)C=C2C=C[C@H](C)[C@H](CC[C@@H](O)C[C@@H](O)CC(=O)O)[C@H]21	yes
11. CN(Cc1cc(Cl)c(Cl)cc1NC(=O)CN)[C@H]1CCCC[C@@H]1N1CCCC1	yes
12. O=C(CCCCC(=O)N/N=C\c1ccccc1O)N/N=C\c1ccccc1O	yes
